# Organism: Canis lupus familiaris
# assay_details: Selectivity of COX1 over COX2 in canine whole blood assay
# Type: tissue-based
I'd be grateful if you could share measured Ratio IC50 for these entries.
Give a plain numeric answer without units written out.

Query string: Give the value of Ratio IC50 reported for the following: N#Cc1c(C(F)(F)F)nn(-c2ccc(S(N)(=O)=O)cn2)c1NCC1CCCO1 (stereo not given)
Result string: 11.7

Query string: Give the value of Ratio IC50 reported for the following: CS(=O)(=O)c1ccc(-n2nc(C(F)F)c(C#N)c2N2CCCCCC2)nc1
Result string: 99.3

Query string: Give the value of Ratio IC50 reported for the following: CS(=O)(=O)c1ccc(-n2nc(C(F)(F)F)c(C#N)c2NCC2CCCO2)nc1 (stereo not given)
Result string: 262

Query string: Give the value of Ratio IC50 reported for the following: CC(C)Nc1c(C#N)c(C(F)(F)F)nn1-c1ccc(S(C)(=O)=O)cn1
Result string: 114

Query string: Give the value of Ratio IC50 reported for the following: CS(=O)(=O)c1ccc(-n2nc(C(F)(F)F)c(C#N)c2NCc2cccs2)nc1
Result string: 44.5

###

# assay_details: Tmax in cat administered at 0.5 mg/kg, sc
# Assay type: ADME, organism-based, Felis catus
# Design: dose 0.5 mg/kg, route subcutaneous
# measurement_conditions: in vivo
observation_type: Tmax (h)
Numbers only; they are read as h.

Query string: Give the value of Tmax reported for the following: C[C@@H]1CN(c2c(C#N)c(C(F)F)nn2-c2ccc(S(C)(=O)=O)cn2)C[C@H](C)O1
Result string: 28

###

# assay_details: Half life in dog administered at 2 mg/kg, po
# Format: ADME, organism-based, Canis lupus familiaris
# Parameters: dose 2 mg/kg, route oral
# measurement_conditions: in vivo
observation_type: half-life (h)
Numbers only; they are read as h.

Query string: Give the value of half-life reported for the following: CS(=O)(=O)c1ccc(-n2nc(C(F)F)c(C#N)c2N2CCCCCC2)nc1
Result string: 2.1

Query string: Give the value of half-life reported for the following: C[C@@H]1C[C@H](C)CN(c2c(C#N)c(C(F)F)nn2-c2ccc(S(N)(=O)=O)cn2)C1
Result string: 1.5

Query string: Give the value of half-life reported for the following: CC1CCCN(c2c(C#N)c(C(F)F)nn2-c2ccc(S(C)(=O)=O)cn2)C1 (stereo not drawn)
Result string: 4.6

Query string: Give the value of half-life reported for the following: C[C@@H]1CN(c2c(C#N)c(C(F)(F)F)nn2-c2ccc(S(C)(=O)=O)cn2)C[C@H](C)O1
Result string: 30

Query string: Give the value of half-life reported for the following: C[C@@H]1CN(c2c(C#N)c(C(F)F)nn2-c2ccc(S(C)(=O)=O)cn2)C[C@H](C)O1
Result string: 11

Query string: Give the value of half-life reported for the following: CCC(C)CNc1c(C#N)c(C(F)(F)F)nn1-c1ccc(S(N)(=O)=O)cn1 (stereo not drawn)
Result string: 2.4

Query string: Give the value of half-life reported for the following: CS(=O)(=O)c1ccc(-n2nc(C(F)(F)F)c(C#N)c2NCC2CCCO2)nc1 (stereo not drawn)
Result string: 2

Query string: Give the value of half-life reported for the following: N#Cc1c(C(F)(F)F)nn(-c2ccc(S(N)(=O)=O)cn2)c1NCC1CCCO1 (stereo not drawn)
Result string: 1

###

# assay_details: Half life in cat administered at 0.5 mg/kg, sc
# Type: ADME, organism-based, Felis catus
# Set-up: dose 0.5 mg/kg, route subcutaneous
# measurement_conditions: in vivo
observation_type: half-life (h)
Numbers only; they are read as h.

Query string: Give the value of half-life reported for the following: C[C@@H]1CN(c2c(C#N)c(C(F)F)nn2-c2ccc(S(C)(=O)=O)cn2)C[C@H](C)O1
Result string: 60

###

# assay_details: AUC in cat administered at 0.5 mg/kg, sc
# Assay type: ADME, organism-based, Felis catus
# Parameters: dose 0.5 mg/kg, route subcutaneous
# measurement_conditions: plasma
observation_type: AUC
State the result as a value with its unit after it.

Query string: Give the value of AUC reported for the following: C[C@@H]1CN(c2c(C#N)c(C(F)F)nn2-c2ccc(S(C)(=O)=O)cn2)C[C@H](C)O1
Result string: 26800 ng·h/mL

###

# measured_target: Cyclooxygenase-2 (Canis lupus familiaris)
# Sequence (Q8SPQ9 whole entry): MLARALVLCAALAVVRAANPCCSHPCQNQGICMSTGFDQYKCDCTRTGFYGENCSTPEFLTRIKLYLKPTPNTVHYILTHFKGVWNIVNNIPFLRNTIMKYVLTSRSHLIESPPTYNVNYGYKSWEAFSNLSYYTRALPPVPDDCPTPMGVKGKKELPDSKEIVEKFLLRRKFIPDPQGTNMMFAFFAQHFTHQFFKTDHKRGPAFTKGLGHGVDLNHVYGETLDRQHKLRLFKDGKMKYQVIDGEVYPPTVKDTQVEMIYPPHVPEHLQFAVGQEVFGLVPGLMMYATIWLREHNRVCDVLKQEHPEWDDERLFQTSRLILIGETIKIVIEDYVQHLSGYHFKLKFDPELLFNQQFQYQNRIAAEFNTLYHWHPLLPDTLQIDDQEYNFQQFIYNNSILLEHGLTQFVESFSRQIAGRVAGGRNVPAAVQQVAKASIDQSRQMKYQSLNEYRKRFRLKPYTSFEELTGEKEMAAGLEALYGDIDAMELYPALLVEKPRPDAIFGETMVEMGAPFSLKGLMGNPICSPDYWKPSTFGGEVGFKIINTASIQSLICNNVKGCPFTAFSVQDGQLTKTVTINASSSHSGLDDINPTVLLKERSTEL
I'd be grateful if you could share measured pIC50 for these entries.
Keep in mind that pIC50 stands for -log10 of concentration in molar terms.

Query string: Give the value of pIC50 reported for the following: CC1CCCN(c2c(C#N)c(C(F)F)nn2-c2ccc(S(C)(=O)=O)cn2)C1 (stereo unspecified)
Result string: 7.52

Query string: Give the value of pIC50 reported for the following: C[C@@H]1C[C@H](C)CN(c2c(C#N)c(C(F)F)nn2-c2ccc(S(N)(=O)=O)cn2)C1
Result string: 6.68

Query string: Give the value of pIC50 reported for the following: CCC(C)CNc1c(C#N)c(C(F)(F)F)nn1-c1ccc(S(N)(=O)=O)cn1 (stereo unspecified)
Result string: 6.72

Query string: Give the value of pIC50 reported for the following: Cc1ccc(CNc2c(C#N)c(C(F)(F)F)nn2-c2ccc(S(C)(=O)=O)cn2)cc1
Result string: 6.94

Query string: Give the value of pIC50 reported for the following: CC(C)C(C)Nc1c(C#N)c(C(F)(F)F)nn1-c1ccc(S(C)(=O)=O)cn1 (stereo unspecified)
Result string: 6.88

Query string: Give the value of pIC50 reported for the following: C[C@@H]1CN(c2c(C#N)c(C(F)F)nn2-c2ccc(S(C)(=O)=O)cn2)C[C@H](C)O1
Result string: 6.62

Query string: Give the value of pIC50 reported for the following: CS(=O)(=O)c1ccc(-n2nc(C(F)(F)F)c(C#N)c2NCc2cccs2)nc1
Result string: 6.90

Query string: Give the value of pIC50 reported for the following: N#Cc1c(C(F)(F)F)nn(-c2ccc(S(N)(=O)=O)cn2)c1NCC1CCCO1 (stereo unspecified)
Result string: 5.90

Query string: Give the value of pIC50 reported for the following: CC(C)(C)CNc1c(C#N)c(C(F)(F)F)nn1-c1ccc(S(C)(=O)=O)cn1
Result string: 6.64

Query string: Give the value of pIC50 reported for the following: CC1CC(C)CN(c2c(C#N)c(C(F)(F)F)nn2-c2ccc(S(C)(=O)=O)cn2)C1 (stereo unspecified)
Result string: 7.02

Query string: Give the value of pIC50 reported for the following: CC(C)(C)CNc1c(C#N)c(C(F)F)nn1-c1ccc(S(C)(=O)=O)cn1
Result string: 6.70

###

# assay_details: Cmax in cat administered at 0.5 mg/kg, sc
# Format: ADME, organism-based, Felis catus
# Set-up: dose 0.5 mg/kg, route subcutaneous
# measurement_conditions: in vivo
observation_type: Cmax (ng/mL)
Numbers only; they are read as ng/mL.

Query string: Give the value of Cmax reported for the following: C[C@@H]1CN(c2c(C#N)c(C(F)F)nn2-c2ccc(S(C)(=O)=O)cn2)C[C@H](C)O1
Result string: 194

###

# Species on record: Canis lupus familiaris
# assay_details: Selectivity of COX1 over COX2 in canine whole blood assay
# Format: tissue-based
observation_type: Ratio IC50
Give a plain numeric answer without units written out.

Query string: Give the value of Ratio IC50 reported for the following: CC(C)(C)CNc1c(C#N)c(C(F)(F)F)nn1-c1ccc(S(N)(=O)=O)cn1
Result string: 98.7

Query string: Give the value of Ratio IC50 reported for the following: CC1CCCCC1Nc1c(C#N)c(C(F)(F)F)nn1-c1ccc(S(C)(=O)=O)cn1 (stereo not given)
Result string: 36

Query string: Give the value of Ratio IC50 reported for the following: CC(C)(C)CNc1c(C#N)c(C(F)F)nn1-c1ccc(S(C)(=O)=O)cn1
Result string: 180

Query string: Give the value of Ratio IC50 reported for the following: C[C@@H]1C[C@H](C)CN(c2c(C#N)c(C(F)F)nn2-c2ccc(S(N)(=O)=O)cn2)C1
Result string: 34.7

Query string: Give the value of Ratio IC50 reported for the following: Cc1ccc(CNc2c(C#N)c(C(F)(F)F)nn2-c2ccc(S(C)(=O)=O)cn2)cc1
Result string: 187

Query string: Give the value of Ratio IC50 reported for the following: CC1CC(C)CN(c2c(C#N)c(C(F)(F)F)nn2-c2ccc(S(N)(=O)=O)cn2)C1 (stereo not given)
Result string: 22.8

Query string: Give the value of Ratio IC50 reported for the following: C[C@@H]1CN(c2c(C#N)c(C(F)F)nn2-c2ccc(S(C)(=O)=O)cn2)C[C@H](C)O1
Result string: 186

Query string: Give the value of Ratio IC50 reported for the following: CCC(C)CNc1c(C#N)c(C(F)F)nn1-c1ccc(S(N)(=O)=O)cn1 (stereo not given)
Result string: 21.9

Query string: Give the value of Ratio IC50 reported for the following: CCC(CC)Nc1c(C#N)c(C(F)(F)F)nn1-c1ccc(S(C)(=O)=O)cn1
Result string: 33.8

Query string: Give the value of Ratio IC50 reported for the following: CC(C)C(C)Nc1c(C#N)c(C(F)(F)F)nn1-c1ccc(S(C)(=O)=O)cn1 (stereo not given)
Result string: 25.8

Query string: Give the value of Ratio IC50 reported for the following: CS(=O)(=O)c1ccc(-n2nc(C(F)(F)F)c(C#N)c2NC2CC3CCC2C3)nc1 (stereo not given)
Result string: 107

Query string: Give the value of Ratio IC50 reported for the following: N#Cc1c(C(F)(F)F)nn(-c2ccc(S(N)(=O)=O)cn2)c1NC1CC2CCC1C2 (stereo not given)
Result string: 107

Query string: Give the value of Ratio IC50 reported for the following: CS(=O)(=O)c1ccc(-n2nc(C(F)(F)F)c(C#N)c2NCC2CC2)nc1
Result string: 200

These entries and their values trace back to ChEMBL document CHEMBL1147755.
